# System: T47D pAKT (S473), PI3Kα H1047R mutation present
# method_summary: HTRF pAKT-T47D;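 note: assay medium was RPMI with 10% FBS and 0.2 units/ml bovine insulin, without phenol red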
# test_parameters: read-out: T47D pAKT IC50; T47D.1 cells, pAKT (S473) HTRF, 1 hour
pIC50: −log10 of the molar value.
recorded_endpoint: pIC50

Recorded pIC50 (compound Cc1c(C(NC(=O)Nc2cnc(N)nc2)C(F)(F)F)oc2c(C)cc(F)cc12 (single isomer, unassigned) [Compound 213] ): < 5.30

Recorded pIC50 (compound Cc1c(C(NC(=O)Nc2cnc(N3CC(C(=O)O)C3)nc2)C(F)(F)F)oc2c(F)cc(F)cc12 (single isomer, unassigned) [Compound 198] ): < 5.30

Recorded pIC50 (compound Cc1c(C(NC(=O)Nc2cnc(N3CC(O)C3)nc2)C(F)(F)F)oc2c(Cl)cc(F)cc12 (single isomer, unassigned) [Compound 199] ): < 5.30

Recorded pIC50 (compound `Cc1c([C@@H](NC(=O)Nc2cnc(N)nc2)C(C)C)oc2ccc(F)cc12` ): 5.30 to 6.00

Recorded pIC50 (compound `Cc1c([C@@H](NC(=O)Nc2cnc(NCC(C)(C)O)nc2)C(F)(F)F)oc2c(F)cc(F)cc12` ): > 6.00

Recorded pIC50 (compound Cc1c(C(NC(=O)Nc2cnc(N)nc2)C(F)(F)F)oc2c(C3CC3)cc(F)cc12 (single isomer, unassigned) [Compound 217] ): < 5.30

Further cases:
Recorded pIC50 (compound `Cc1c([C@@H](C)NC(=O)Nc2ccc(S(N)(=O)=O)cc2)oc2ccc(F)cc12` ): 5.30 to 6.00

These measurements were taken from patent US12084434B2.
